Listed below: GI50 values for each entry.
Test system: NCI-H1048 cells
Test: MTT proliferation assay, NCI-H1048
Assay type: cell-based
Conditions: 5 days compound exposure, 1:3 serial dilution starting at 10 μM
*1 amine or outer side, *2 acyl side, *3 side chain or, on linkers, in order; H or OH if unused. Where a SMILES comes first, the peptide text is derived from it. Bridges are numbered along the chain shown (N, C = ends). [ ]: non-standard residue; d: D form. The star is where a group is joined. X36 = Cc1cc(-c2ccc(Cl)cc2C[C@@H](C(=O)[*:2])N(C)[*:1])ccc1N1CCN(C)CC1; X167 = CN([C@@H](Cc1cc(F)ccc1C1=CCN(S(C)(=O)=O)CC1)C(=O)[*:2])[*:1]; NMehhhLys(Me) = CN([C@@H](CCCCCCCN(C)[*:3])C(=O)[*:2])[*:1]; X41 = CN([C@@H](Cc1cc(Cl)cc2c1ccn2C)C(=O)[*:2])[*:1]; cBuCO(3,3-F2-1-CF3) = O=C(C1(C(F)(F)F)CC(F)(F)C1)*; Pro(trans-4-F) = O=C(O)[C@@H]1C[C@@H](F)CN1; Gly(cPr) = N[C@H](C(=O)O)C1CC1

>  <compound>
CC(C)C[C@@H]1NC(=O)[C@@H](N(C)C(=O)[C@@H](NC(=O)[C@@H]2C[C@@H](F)CN2C(=O)C2(C(F)(F)F)CC(F)(F)C2)C2CC2)CCCCCCCN(C)C(=O)[C@H](Cc2cc(Cl)cc3c2ccn3C)N(C)C1=O [Example 393] ({cBuCO(3,3-F2-1-CF3)}-[Pro(trans-4-F)][Gly(cPr)][NMehhhLys(Me)]L[X41]; lactam 3-C)

>  <GI50>
1790 nM

$$$$
>  <compound>
Cc1cc(-c2ccc(Cl)cc2C[C@H]2C(=O)N(C)CCCCCCC[C@H](N(C)C(=O)[C@@H](NC(=O)[C@@H]3C[C@@H](F)CN3C(=O)C3(C(F)(F)F)CC(F)(F)C3)C3CC3)C(=O)N[C@@H](CC(C)C)C(=O)N2C)ccc1N1CCN(C)CC1 [Example 374] ({cBuCO(3,3-F2-1-CF3)}-[Pro(trans-4-F)][Gly(cPr)][NMehhhLys(Me)]L[X36]; lactam 3-C)

>  <GI50>
10 nM

$$$$
>  <compound>
CC(C)C[C@@H]1NC(=O)[C@@H](N(C)C(=O)[C@@H](NC(=O)[C@@H]2C[C@@H](F)CN2C(=O)C2(C(F)(F)F)CC(F)(F)C2)C2CC2)CCCCCCCN(C)C(=O)[C@H](Cc2cc(F)ccc2C2=CCN(S(C)(=O)=O)CC2)N(C)C1=O [Example 100] ({cBuCO(3,3-F2-1-CF3)}-[Pro(trans-4-F)][Gly(cPr)][NMehhhLys(Me)]L[X167]; lactam 3-C)

>  <GI50>
20 nM

$$$$

---

System: NCI-H1048 cells
Experiment: MTT proliferation assay, NCI-H1048;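 note: Dose-response in 96-well plates over 8 or 10 concentration points, with exposure spanning 3-4 cell doublings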
Assay type: cell-based
Conditions: 5 days compound exposure, 1:3 serial dilution starting at 10 μM
Overview of reported GI50 across a group of compounds:
value.type: GI50 (nM)

>  <given.smiles>
CC(C)C[C@@H]1NC(=O)[C@@H](N(C)C(=O)[C@@H](NC(=O)[C@@H]2C[C@@H](F)CN2C(=O)C2(C(F)(F)F)CC(F)(F)C2)C2CC2)CC=CCCCCN(C)C(=O)[C@H](Cc2cc(Cl)ccc2Cl)N(C)C1=O

>  <readout.units>
nM

>  <readout.value>
100

$$$$
>  <given.smiles>
COCCn1cc(-c2ccc(Cl)cc2C[C@H]2C(=O)NCCCCC=CC[C@H](N(C)C(=O)[C@@H](NC(=O)[C@@H]3C[C@@H](F)CN3C(=O)C3(C(F)(F)F)CC(F)(F)C3)C3CC3)C(=O)N[C@@H](CC(C)C)C(=O)N2C)cn1

>  <readout.units>
nM

>  <readout.value>
30

$$$$

FYI, the data here is from patent US20240408169A1.
